System: giant foxtail
Assay Comment: Test C postemergence
Type: in vivo, Setaria faberii
Particulars: 125 g ai/ha, postemergence; visual rating, scale 0 to 100 (0 no effect, 100 complete control)

# Smiles Code, Plant response rating, Foxtail, Giant
rows = [
    ("N#Cc1cnn(-c2c(Br)cccc2Oc2ncc(Cl)cn2)c1", 20),
    ("Clc1cnc(Oc2cccc(Cl)c2-n2cc(I)cn2)nc1", 10),
    ("N#Cc1cnn(-c2c(Oc3ncc(F)cn3)cccc2C(F)F)c1", 40),
    ("Fc1cnc(Oc2cccc(C(F)F)c2-n2cc(C(F)(F)F)cn2)nc1", 10),
    ("FC(F)Oc1cnn(-c2c(Cl)cccc2Oc2ncc(Cl)cn2)c1", 45),
    ("FC(F)c1cnn(-c2c(Br)cccc2Oc2ncc(Cl)cn2)c1", 15),
    ("N#Cc1cnn(-c2c(C#N)cccc2Oc2ncc(Cl)cn2)c1", 5),
    ("Fc1cccc(Oc2ncc(Cl)cn2)c1-n1cc(Cl)cn1", 20),
    ("FC(F)(F)c1cnn(-c2c(Br)cccc2Oc2ncc(Cl)cn2)c1", 15),
]

----------
Test system: barnyardgrass
Assay Comment: Test C postemergence
Format: in vivo, Echinochloa crus-galli
Particulars: Postemergence, 31 g ai/ha; scale 0 to 100 (0 no effect, 100 complete control); 13 to 15 days
A collection of compounds and their measured Plant response rating, Barnyardgrass

# Compound, Plant response rating, Barnyardgrass
measured = [
    ("Fc1cnc(Oc2ccccc2-n2cc(C(F)(F)F)cn2)nc1 [Compound 47]", 0),
    ("Cc1cnc(Oc2cccc(C#N)c2-n2cc(C#N)cn2)nc1 [Compound 90]", 5),
    ("FCc1cn(-c2ccccc2Oc2ncc(Cl)cn2)nn1 [Compound 123]", 15),
    ("N#Cc1cccc(Oc2ncc(Cl)cn2)c1-n1cc(Cl)cn1 [Compound 72]", 5),
    ("N#Cc1cccc(Oc2ncc(Br)cn2)c1-n1cc(Br)cn1 [Compound 57]", 5),
    ("N#Cc1cccc(Oc2ncc(Cl)cn2)c1-n1cc(OC(F)F)cn1 [Compound 97]", 10),
]

----------
A collection of molecules and their measured Plant response rating, Nutsedge, Yellow
Test system: yellow nutsedge
Assay Comment: Test C postemergence
Assay type: in vivo, Cyperus esculentus
Particulars: Postemergence, 62 g ai/ha; scale 0 to 100 (0 no effect, 100 complete control); 13 to 15 days

# Smiles Code, Plant response rating, Nutsedge, Yellow
measured = [
    ("FC(F)Oc1cnn(-c2c(Cl)cccc2Oc2ncc(Cl)cn2)c1", 5),
    ("FCc1cccc(Oc2ncc(Cl)cn2)c1-n1cc(I)cn1", 5),
    ("N#Cc1cnn(-c2c(C#N)cccc2Oc2ncc(Cl)cn2)c1", 5),
    ("Clc1cnc(Oc2cccc(Cl)c2-n2cc(Cl)cn2)nc1", 0),
    ("N#Cc1cnn(-c2c(Oc3ncc(F)cn3)cccc2C(F)F)c1", 0),
    ("Clc1cnc(Oc2cccc(Br)c2-n2cc(Cl)cn2)nc1", 5),
    ("Clc1cnc(Oc2ccccc2-n2cc(I)nn2)nc1", 5),
]

----------
Tested on: sedge, umbrella
Assay Comment: Test B flooded paddy test
Type: in vivo, Cyperus difformis
Particulars: Flood, 250 g ai/ha; 0 to 100 scale where 0 is no effect and 100 is complete control
A collection of compounds and their measured Plant response rating, Sedge, Umbrella
Readout Type: Plant response rating, Sedge, Umbrella

# Smiles Code, Result
data = [
    ("Clc1cnc(Oc2ccccc2-n2cnc(Br)c2)nc1", 90),
    ("FC(F)Oc1cnn(-c2c(Br)cccc2Oc2ncc(Cl)cn2)c1", 75),
    ("CCOC(=O)c1cnn(-c2c(C#N)cccc2Oc2ncc(Br)cn2)c1", 0),
    ("Fc1cccc(Oc2ncc(Cl)cn2)c1-n1cc(OC(F)F)cn1", 60),
    ("Fc1cnc(Oc2ccccc2-n2cc(C(F)(F)F)cn2)nc1", 70),
    ("Cc1cnc(Oc2cccc(C#N)c2-n2cc(Br)cn2)nc1", 75),
    ("N#Cc1cccc(Oc2ncc(Cl)cn2)c1-n1cc(Cl)cn1", 85),
    ("Clc1cnc(Oc2cccc(Cl)c2-n2cc(I)cn2)nc1", 85),
    ("Clc1cnc(Oc2ccccc2-n2cc(-c3ccccn3)cn2)nc1", 0),
]

----------
System: velvetleaf
Assay Comment: Test A postemergence
Format: in vivo, Abutilon theophrasti
Particulars: 500 g ai/ha, 0 to 100 scale where 0 is no effect and 100 is complete control
Readout Type: Plant response rating, Velvetleaf

# Compound, Recorded Number
measured = [
    ("FC(F)c1cccc(Oc2ncc(Br)cn2)c1-n1cc(C(F)(F)F)cn1 [Compound 163]", 100),
    ("Clc1cnc(Oc2cccc(-c3cnoc3)c2-n2cc(Br)cn2)nc1 [Compound 291]", 60),
    ("O=Cc1cccc(Oc2ncc(Br)cn2)c1-n1cc(Cl)cn1 [Compound 206]", 20),
    ("N#Cc1cnn(-c2c(C#N)cccc2Oc2ncc(Cl)cn2)c1 [Compound 200]", 100),
    ("FC(F)c1cnn(-c2c(Cl)cccc2Oc2ncc(Cl)cn2)c1 [Compound 192]", 100),
    ("FC(F)c1cccc(Oc2ncc(Cl)cn2)c1-n1cc(Cl)cn1 [Compound 209]", 100),
    ("N#Cc1cccc(Oc2ncc(C(F)(F)F)cn2)c1-n1cc(Br)cn1 [Compound 113]", 80),
    ("Cc1cnc(Oc2cccc(C#N)c2-n2cc(Br)cn2)nc1 [Compound 76]", 100),
    ("Cc1cnc(Oc2cccc(C#N)c2-n2cc(C(F)(F)F)cn2)nc1 [Compound 180]", 100),
    ("N#Cc1cnc(Oc2ccccc2-n2cc(Br)cn2)nc1 [Compound 233]", 30),
    ("Clc1cnc(Oc2cccc(-c3ncco3)c2-n2cc(Br)cn2)nc1 [Compound 287]", 20),
    ("FC(F)Oc1cnn(-c2ccccc2Oc2ncc(Cl)cn2)c1 [Compound 98]", 100),
    ("N#Cc1cnc(Oc2ccccc2-n2cccn2)nc1 [Compound 226]", 10),
    ("CCOC(=O)c1cnn(-c2c(C#N)cccc2Oc2ncc(Br)cn2)c1 [Compound 294]", 60),
    ("N#Cc1cccc(Oc2ncc(Br)cn2)c1-n1cc(Cl)cn1 [Compound 71]", 100),
    ("NN=Cc1cccc(Oc2ncc(Cl)cn2)c1-n1cc(Br)cn1 [Compound 288]", 30),
    ("Fc1cnc(Oc2cccc(C(F)F)c2-n2cc(Cl)cn2)nc1 [Compound 94]", 100),
    ("Clc1cnc(Oc2cccc(Cl)c2-n2cc(I)cn2)nc1 [Compound 181]", 100),
    ("COc1cnc(Oc2ccccc2-n2cc(Br)cn2)nc1 [Compound 234]", 100),
    ("NN=Cc1cccc(Oc2ncc(Cl)cn2)c1-n1cc(Cl)cn1 [Compound 295]", 30),
]

----------
Tested on: arrowleaf sida
Assay Comment: Test E preemergence
Format: in vivo, Sida rhombifolia
Particulars: 31 g ai/ha, preemergence, scale 0 to 100 (0 no effect, 100 complete control)
A collection of compounds and their measured Arrowleaf Sida plant response rating

# Compound, Arrowleaf Sida plant response rating
measured = [
    ("FC(F)c1cccc(Oc2ncc(Cl)cn2)c1-n1cc(C(F)(F)F)cn1 [Compound 170]", 10),
    ("N#Cc1cnn(-c2c(C#N)cccc2Oc2ncc(Cl)cn2)c1 [Compound 200]", 20),
    ("Cc1cnc(Oc2cccc(C#N)c2-n2cc(C(F)(F)F)cn2)nc1 [Compound 180]", 15),
    ("N#Cc1cccc(Oc2ncc(Cl)cn2)c1-n1cc(Cl)cn1 [Compound 72]", 40),
]

----------
A collection of compounds and their measured Foxtail, Giant plant response rating
Test system: giant foxtail
Assay Comment: Test A preemergence
Type: in vivo, Setaria faberii
Particulars: 500 g ai/ha, 0 to 100 scale where 0 is no effect and 100 is complete control

# Compound, Foxtail, Giant plant response rating
data = [
    ("N#Cc1cn(-c2c(C#N)cccc2Oc2ncc(Cl)cn2)nn1", 90),
    ("FC(F)(F)c1cnn(-c2c(Br)cccc2Oc2ncc(Cl)cn2)c1", 100),
    ("N#Cc1cnn(-c2c(C#N)cccc2Oc2ncc(Br)cn2)c1", 100),
    ("Clc1cnc(Oc2cccc(-c3ncco3)c2-n2cc(Br)cn2)nc1", 40),
    ("CC(F)c1cccc(Oc2ncc(Cl)cn2)c1-n1cc(Br)cn1 (centres unmarked)", 100),
]

----------
Tested on: oilseed rape
Assay Comment: Test C preemergence
Assay type: in vivo, Brassica napus
Particulars: 16 g ai/ha, preemergence; scale 0 to 100 (0 no effect, 100 complete control)
So basically: is Oilseed Rape plant response rating under 80? Then TRUE. Not under? Then FALSE.

# Smiles Code, Assigned Class
rows = [
    ("N#Cc1cnn(-c2c(C#N)cccc2Oc2ncc(Br)cn2)c1", "TRUE"),
    ("Fc1cnc(Oc2cccc(C(F)F)c2-n2cc(Cl)cn2)nc1", "FALSE"),
    ("CC(C)c1cnn(-c2c(C#N)cccc2Oc2ncc(Cl)cn2)c1", "TRUE"),
    ("FC(F)c1cccc(Oc2ncc(Cl)cn2)c1-n1cc(C(F)(F)F)cn1", "TRUE"),
]
